# Tested Target: Tyrosine-protein kinase SYK (Homo sapiens, UniProt P43405)
Property Measured: IC50 (pM)
Write the value in pM as a bare number.

Challenge: For the compound shown here, NC(=O)c1nnc(N[C@@H]2CCOC[C@@H]2N)nc1Nc1csc2ccccc12 , give the reported IC50.
Response given: 890

Challenge: For the compound shown here, NC(=O)c1nnc(N[C@@H]2CCCC[C@@H]2N)nc1Nc1nc(-c2ccccc2)cs1 , give the reported IC50.
Response given: 380
